- System: rice
- assayInfo: Test C flooded paddy test
- Format: in vivo, Oryza sativa
- experimentalConditions: 250 g ai/ha, scale of 0 to 100, 0 is no effect, 100 is complete control
We use 20 as the dividing line for Rice plant response rating: on or above the line is 1, below is -1.

Reference set (4 entries):
CCn1nc(C(C)(C)C)cc1C(=O)Nc1cccc(C(=O)OC)c1
1
CC(=NO)c1cccc(NC(=O)c2cc(C(C)(C)C)nn2CC(F)(F)F)c1
-1
CCn1nc(C(C)(C)C)cc1C(=O)Nc1cccc(OC(F)(F)F)c1
-1
CCc1cn(C(C)(C)C)nc1C(=O)Nc1cc(C(=O)N(C)C)ccn1
1

Exam item: decide whether the reported Rice plant response rating for `C#CCNC(=O)c1ccc(F)c(NC(=O)c2cc(C3(C)CC3)nn2CC)c1` is at least 20.
-1
